# test: CellTiter-Glo luminescent readout of SW480 viability loss, NPC library primary (AID 1117343)
# cond: CellTiter-Glo luminescence; at 20 µM (top of the series)
Criterion: viability decrease (inhibition) strictly under 20%. Met: class 1. Not met: class 0.

molecule	discrete label
CCC(C)(C)c1ccc(O)cc1	class 1
CC(C)N(CCC(C(N)=O)(c1ccccc1)c1ccccn1)C(C)C (stereo not drawn)	class 1
CCOP(=S)(OCC)Oc1ccc2c(C)c(Cl)c(=O)oc2c1	class 1
CC[n+]1c(-c2ccccc2)c2cc(N)ccc2c2ccc(N)cc21	class 0
COc1ccc(OC)c(C(O)C(C)N)c1 (stereo not drawn)	class 1
COc1cccc(C(=O)CCN[C@@H](C)[C@H](O)c2ccccc2)c1	class 0
C=C(C)[C@H]1Cc2c(ccc3c2O[C@@H]2COc4cc(OC)c(OC)cc4[C@@H]2C3=O)O1	class 0
C[C@]12CC[C@@H]3c4ccc(OC(=O)N(CCCl)CCCl)cc4CC[C@H]3[C@@H]1CC[C@@H]2O	class 0
O=S(=O)(O)c1cc(O)ccc1O	class 1
CC(Cc1ccc2c(c1)OCO2)NCC(O)c1ccc(O)c(O)c1 (stereo not drawn)	class 0
CC(C)c1c(CN(C)C(C)Cc2ccccc2)n(C)n(-c2ccccc2)c1=O (stereo not drawn)	class 0
C[C@@H]1C[C@@H]([C@H](O)CC2CC(=O)NC(=O)C2)C(=O)[C@@H](C)C1	class 0
O=c1n(Cl)c(=O)n(Cl)c(=O)n1Cl	class 1
CCCCCCCCCCCCCCCC[N+](C)(C)C	class 0
CC(C)NCC(O)c1ccc(N)c(C#N)c1 (stereo not drawn)	class 0
Nc1ccc(Cl)cc1C(=O)c1ccccc1F	class 0
COc1ccc2c(c1OC)CN1CCc3cc4c(cc3C1C2)OCO4 (stereo not drawn)	class 1
CCCCc1ccc(C(=O)O)nc1	class 0
Clc1cccc(N2CCNCC2)c1	class 0
CC[C@]1(O)CC[C@H]2[C@@H]3CCC4=CCCC[C@@H]4[C@H]3CC[C@@]21C	class 0
COP(=S)(OC)Oc1ccc(S(N)(=O)=O)cc1	class 1
CCCN(CCC)C(=O)Cc1c(-c2ccc(Cl)cc2)nc2ccc(Cl)cn12	class 1
CCN(CCO)CCn1c(Cc2ccccc2)nc2c1c(=O)n(C)c(=O)n2C	class 1
